Each entry below carries its reported furin cleavage Z-score.
Target: furin, P09958;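 note: purified furin at 1:10 enzyme:substrate in 50 mM HEPES pH 7.5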
Sequence (P09958 whole entry): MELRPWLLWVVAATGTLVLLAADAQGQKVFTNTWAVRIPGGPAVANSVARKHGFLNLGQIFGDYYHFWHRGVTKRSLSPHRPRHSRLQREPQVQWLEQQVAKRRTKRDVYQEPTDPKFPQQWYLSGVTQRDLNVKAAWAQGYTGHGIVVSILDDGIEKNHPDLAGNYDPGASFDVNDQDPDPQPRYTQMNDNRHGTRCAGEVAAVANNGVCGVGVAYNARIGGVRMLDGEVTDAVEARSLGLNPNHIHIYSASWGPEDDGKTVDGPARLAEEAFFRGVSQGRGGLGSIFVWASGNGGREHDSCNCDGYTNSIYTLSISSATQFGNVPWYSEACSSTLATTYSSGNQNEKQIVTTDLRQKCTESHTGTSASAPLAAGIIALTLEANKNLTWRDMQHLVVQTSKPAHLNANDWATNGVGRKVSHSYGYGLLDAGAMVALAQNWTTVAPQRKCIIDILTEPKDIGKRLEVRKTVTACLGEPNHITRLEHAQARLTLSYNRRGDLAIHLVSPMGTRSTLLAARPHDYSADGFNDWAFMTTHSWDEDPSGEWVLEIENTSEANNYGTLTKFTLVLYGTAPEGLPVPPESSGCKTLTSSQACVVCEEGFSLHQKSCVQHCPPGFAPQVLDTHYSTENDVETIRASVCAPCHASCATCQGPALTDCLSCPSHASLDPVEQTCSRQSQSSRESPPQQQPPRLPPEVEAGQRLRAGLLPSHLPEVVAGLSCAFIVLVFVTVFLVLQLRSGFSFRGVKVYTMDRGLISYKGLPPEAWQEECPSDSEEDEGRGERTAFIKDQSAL
Assay: furin cleavage Z-score vs untreated control; higher = more cleavage, active = 3.5 or more, inactive = 1 or less, 8 variable residues between constant flanks
Settings: 15 min
The other results are listed elsewhere or left out. No count for the full screen is at hand.

Sequence String	furin cleavage Z-score
CAQRQPFPRDAGNASASA [FS-951]	0.099
CAPVVTSTWVAGNASASA [HC2159]	0.48
CAEYVEIRQVAGNASASA [HC1205]	-0.194
CARRARGADAAGNASASA [FS-2512]	3.57
CARRKKSLSEAGNASASA [FS-3050]	7.01
CAAVQRVPRDAGNASASA [FS-1312]	6.58
CAISWCLWWLAGNASASA [HC580]	-0.298

Taken from the supplement of paper PMC3545927.
